- Assay System: Metabotropic glutamate receptor 8 (Rattus norvegicus)
- Procedure Details: mGluR8 Gi/Go-coupled signaling modulation – cell-based, rat, thallium flux, HTS, primary screen (AID 488969)
- Condition Set: HEK293 rat mGluR8, GIRK thallium flux, FluoZin2; at 10 µM; stronger effect = higher value; submaximal glutamate (EC20) added with thallium
Over roughly 110,000 compounds, “z-score” has its median near -0.1; the highest 2% begin near 2. The entries come from a sample that favours the highest values as a whole.
Experimental Endpoint: z-score

Compound: Brc1ccc(N=C/C=C/C=C/Nc2ccc(Br)cc2)cc1
Recorded Number: 0.151
--
Compound: O=C1OCCC1Sc1nnc(-c2ccc(Cl)cc2)n1Cc1ccccc1 (stereo not drawn)
Recorded Number: -0.478
--
Compound: C(/C=C/C=C/Nc1ccccc1)=Nc1ccccc1
Recorded Number: 16.2

* * *

- Assay System: Metabotropic glutamate receptor 8 (Rattus norvegicus) (UniProt P70579)
- Sequence (P70579 whole entry, looked up): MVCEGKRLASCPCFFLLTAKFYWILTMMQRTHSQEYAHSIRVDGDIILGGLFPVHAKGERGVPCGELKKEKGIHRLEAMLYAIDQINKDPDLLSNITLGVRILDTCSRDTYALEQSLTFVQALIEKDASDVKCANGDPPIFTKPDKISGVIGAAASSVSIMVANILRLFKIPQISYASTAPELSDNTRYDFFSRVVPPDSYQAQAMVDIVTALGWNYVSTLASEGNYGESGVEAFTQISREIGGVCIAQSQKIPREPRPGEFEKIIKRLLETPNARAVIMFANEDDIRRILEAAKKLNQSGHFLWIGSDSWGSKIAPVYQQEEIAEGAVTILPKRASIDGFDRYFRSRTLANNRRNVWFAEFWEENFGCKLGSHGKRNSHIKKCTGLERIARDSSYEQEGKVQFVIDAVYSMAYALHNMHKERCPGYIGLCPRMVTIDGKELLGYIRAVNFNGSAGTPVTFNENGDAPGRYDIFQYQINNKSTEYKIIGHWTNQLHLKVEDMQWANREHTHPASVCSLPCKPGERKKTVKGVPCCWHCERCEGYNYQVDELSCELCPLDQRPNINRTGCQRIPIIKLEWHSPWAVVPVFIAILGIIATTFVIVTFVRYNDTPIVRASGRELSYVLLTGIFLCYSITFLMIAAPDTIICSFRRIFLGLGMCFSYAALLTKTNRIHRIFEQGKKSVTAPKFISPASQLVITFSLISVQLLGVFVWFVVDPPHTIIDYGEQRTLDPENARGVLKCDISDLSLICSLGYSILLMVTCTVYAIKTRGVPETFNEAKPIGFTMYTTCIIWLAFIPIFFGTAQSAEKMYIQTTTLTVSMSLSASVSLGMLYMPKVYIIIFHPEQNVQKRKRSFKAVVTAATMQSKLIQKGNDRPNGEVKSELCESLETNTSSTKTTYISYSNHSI
- Procedure Details: mGluR8 Gi/Go-coupled signaling modulation – cell-based, rat, thallium flux, HTS, primary screen (AID 488969)
- Condition Set: HEK293 rat mGluR8, GIRK (G protein-gated inwardly rectifying potassium channel) thallium flux, FluoZin2; at 10 µM; stronger effect = higher value; submaximal glutamate (EC20) added with thallium
The full ranking holds about 110,000 compounds; the median of “z-score” is about -0.1, and the highest 2% start at about 2. What follows is part of a selection rich in the highest values, with near analogues and random picks from the rest.
// label = True if z-score is not less than -0.04, otherwise False

Molecule: CCOc1ccccc1NC(=O)Cc1c(F)cccc1Cl
Assay System: Metabotropic glutamate receptor 8 (Rattus norvegicus) (UniProt P70579)
Class Assignment: False

Molecule: CCC(=O)NC(=S)Nc1cccc(Cl)c1N1CCCCC1
Assay System: Metabotropic glutamate receptor 8 (Rattus norvegicus) (UniProt P70579)
Class Assignment: True

Molecule: CCOC(=O)C1=C(C)NC2=C(C(=O)CC(c3ccc(OC)c(OC)c3)C2)C1c1ccc(C)o1 (stereo not drawn)
Assay System: Metabotropic glutamate receptor 8 (Rattus norvegicus) (UniProt P70579)
Class Assignment: True

Molecule: O=C(CSc1nnc2n1CCCN2C(=S)Nc1ccc(Cl)cc1)c1ccccc1
Assay System: Metabotropic glutamate receptor 8 (Rattus norvegicus) (UniProt P70579)
Class Assignment: False

Molecule: Cc1cc(C)c2[nH]c(=S)cc(C)c2c1
Assay System: Metabotropic glutamate receptor 8 (Rattus norvegicus) (UniProt P70579)
Class Assignment: True

Molecule: COc1cc2c(cc1NC(=O)CSc1ccccc1)oc1ccccc12
Assay System: Metabotropic glutamate receptor 8 (Rattus norvegicus) (UniProt P70579)
Class Assignment: False

Molecule: O=C(NC(=S)Nc1ccccc1N1CCCCC1)c1cccs1
Assay System: Metabotropic glutamate receptor 8 (Rattus norvegicus) (UniProt P70579)
Class Assignment: True

Molecule: O=C(NC(=S)Nc1cccc(Cl)c1N1CCCCC1)c1ccc2c(c1)OCCO2
Assay System: Metabotropic glutamate receptor 8 (Rattus norvegicus) (UniProt P70579)
Class Assignment: True

Molecule: Cc1cc2[nH]c(=S)[nH]c2cc1C
Assay System: Metabotropic glutamate receptor 8 (Rattus norvegicus) (UniProt P70579)
Class Assignment: True

Molecule: O=C(COc1ccccc1)NCCc1cn2ccsc2n1
Assay System: Metabotropic glutamate receptor 8 (Rattus norvegicus) (UniProt P70579)
Class Assignment: True

Molecule: CCC1CCCCN1CC(=O)c1c(C)[nH]c2ccccc12 (stereo not drawn)
Assay System: Metabotropic glutamate receptor 8 (Rattus norvegicus) (UniProt P70579)
Class Assignment: False

Molecule: O=C(NC(=S)Nc1cccc(Cl)c1N1CCCCC1)c1cccs1
Assay System: Metabotropic glutamate receptor 8 (Rattus norvegicus) (UniProt P70579)
Class Assignment: True

Molecule: O=C(NC(=S)Nc1cccc(Cl)c1N1CCCCC1)c1ccco1
Assay System: Metabotropic glutamate receptor 8 (Rattus norvegicus) (UniProt P70579)
Class Assignment: True
